Give measured melting point for each item. Keep answers brief.

[ask] Which melting point reading was recorded for the compound CC(C)Oc1cc(N(Cc2cnccn2)c2ccc(C(=O)O)cc2)ccc1OC(F)F ?
[reply] 132.3 to 135.7 °C

[ask] Name the reported melting point value associated with the compound CCOc1cc(N(Cc2cncs2)c2ccc(C(=O)O)cc2)ccc1OC(F)F
[reply] 67 to 69.3 °C

[ask] Form field: reported melting point of CCOc1cc(N(Cc2cncnc2)c2ccc(C(=O)O)cc2)ccc1OC
[reply] 190.9 to 191.9 °C

[ask] What does the record list as melting point for COc1ccc(N(Cc2cncs2)c2ccc(C(=O)O)cc2)cc1OC(C)C ?
[reply] 67.8 to 69.1 °C

[ask] So what's the measured melting point for this one? CNS(=O)(=O)c1ccc(N(Cc2cncs2)c2ccc(OC(F)F)c(OC(F)F)c2)cc1
[reply] 105.5 to 106.4 °C

[ask] If you can, please state the reported melting point value of COc1ccc(N(Cc2cncs2)c2cccc(C(=O)O)c2)cc1OC(F)F .
[reply] 86.4 to 88.3 °C

[ask] Consider the compound shown here: COc1ccc(N(Cc2ccc(=O)[nH]c2)c2ccc(C(=O)O)cc2)cc1OC1CCCC1 What is its recorded melting point?
[reply] 143.7 to 145.9 °C

[ask] Could you share which melting point value was measured for CC(C)Oc1cc(N(Cc2cnccn2)c2cccc(C(=O)O)c2)ccc1OC(F)F ?
[reply] 81.2 to 82 °C
